# Test system: SW620
# experiment: MTT cytotoxicity, SW620
# Format: cell-based
# run parameters: read-out: MTT cytotoxicity SW620 IC50; colon cancer cell line SW620
Field: pIC50. Provide a value for each of the compounds that follow.
Numbers only, as −log10 of the molar value.

Answered cases to consult:
[
  {
    "compound": "CC[C@H](C)[C@@H]1OC(=O)C(C)(C)[C@@H](O)[C@@H](Cc2ccccc2)OC(=O)[C@H](C(C)C)OC(=O)[C@@H](NC(=O)c2cccc(NC=O)c2O)[C@H](C)OC1=O [compound 1, neoantimycin]",
    "target desc": "SW620",
    "measured number": 7.22
  },
  {
    "compound": "CC(C)[C@@H]1OC(=O)[C@@H](NC(=O)c2cccc(NC=O)c2O)[C@H](C)OC(=O)[C@H](C(C)C)OC(=O)C(C)(C)[C@@H](O)[C@@H](Cc2ccccc2)OC1=O [compound 2, neoantimycin F]",
    "target desc": "SW620",
    "measured number": 6.80
  },
  {
    "compound": "CC[C@H](C)[C@@H]1OC(=O)C(C)(C)C(=O)[C@@H](Cc2ccccc2)OC(=O)[C@H](C(C)C)OC(=O)[C@@H](NC(=O)c2cccc(NC=O)c2O)[C@@H](C)OC1=O [compound 4, neoantimycin H]",
    "target desc": "SW620",
    "measured number": 7.15
  },
  {
    "compound": "CCC(C)[C@@H]1OC(=O)[C@H](C)OC(=O)[C@@H](NC(=O)c2cccc(NC=O)c2O)[C@@H](C)OC(=O)[C@H](CC(C)C)OC(=O)C(C)(C)C(=O)[C@H](CC(C)C)NC1=O (stereo partly shown) [compound 7, respirantin, reference compound]",
    "target desc": "SW620",
    "measured number": 8.00
  },
  {
    "compound": "CCC(C)C1OC(=O)C(NC(=O)c2cccc(NC=O)c2O)C(C)OC(=O)C(C(C)CC)OC(=O)C(C)(C)C(O)C(Cc2ccccc2)OC1=O (stereo not shown) [compound 3, neoantimycin G]",
    "target desc": "SW620",
    "measured number": 7.40
  },
  {
    "compound": "CCCC[C@H]1C(=O)O[C@H](C)[C@H](NC(=O)c2cccc(NC=O)c2O)C(=O)O[C@@H](C)[C@@H]1OC(=O)C(C)C [compound 6, antimycin A4a, reference compound]",
    "target desc": "SW620",
    "measured number": 6.92
  }
]

The record that follows has no pIC50 shown yet.
Query string: Which value of pIC50 has been reported for CCCCCC[C@H]1C(=O)O[C@H](C)[C@H](NC(=O)c2cccc(NC=O)c2O)C(=O)O[C@@H](C)[C@@H]1OC(=O)C(C)C [compound 5, antimycin A2a, reference compound] in the records?
Result string: 6.82

---

# Test system: SW620 Ad300
# experiment: MTT cytotoxicity, SW620 Ad300
# Type: cell-based
# run parameters: read-out: MTT cytotoxicity SW620 Ad300 IC50; P-gp overexpressing daughter cell line SW620 Ad300
Quick rule for you: IC50 under 300 nM gets 1.0, anything else gets 0.0.

[
  {
    "compound": "CCCCCC[C@H]1C(=O)O[C@H](C)[C@H](NC(=O)c2cccc(NC=O)c2O)C(=O)O[C@@H](C)[C@@H]1OC(=O)C(C)C [compound 5, antimycin A2a, reference compound]",
    "group label": 0.0
  }
]

Query string: IC50 under 300 nM? Item: CC[C@H](C)[C@@H]1OC(=O)C(C)(C)C(=O)[C@@H](Cc2ccccc2)OC(=O)[C@H](C(C)C)OC(=O)[C@@H](NC(=O)c2cccc(NC=O)c2O)[C@@H](C)OC1=O [compound 4, neoantimycin H]
Result string: 1.0

Query string: Hello, I'm reviewing records and need to know if IC50 of CCC(C)[C@@H]1OC(=O)[C@H](C)OC(=O)[C@@H](NC(=O)c2cccc(NC=O)c2O)[C@@H](C)OC(=O)[C@H](CC(C)C)OC(=O)C(C)(C)C(=O)[C@H](CC(C)C)NC1=O (stereo partly shown) [compound 7, respirantin, reference compound] is below 300 nM. Could you check?
Result string: 1.0

Query string: Is 300 nM strictly greater than the compound's reported IC50? compound: CC[C@H](C)[C@@H]1OC(=O)C(C)(C)[C@@H](O)[C@@H](Cc2ccccc2)OC(=O)[C@H](C(C)C)OC(=O)[C@@H](NC(=O)c2cccc(NC=O)c2O)[C@H](C)OC1=O [compound 1, neoantimycin]
Result string: 1.0

Query string: IC50 strictly < 300 nM for this compound? CCC(C)C1OC(=O)C(NC(=O)c2cccc(NC=O)c2O)C(C)OC(=O)C(C(C)CC)OC(=O)C(C)(C)C(O)C(Cc2ccccc2)OC1=O (stereo not shown) [compound 3, neoantimycin G]
Result string: 1.0

Query string: Decide: IC50 of CCCC[C@H]1C(=O)O[C@H](C)[C@H](NC(=O)c2cccc(NC=O)c2O)C(=O)O[C@@H](C)[C@@H]1OC(=O)C(C)C [compound 6, antimycin A4a, reference compound] strictly below 300 nM?
Result string: 0.0

Query string: Does the reported IC50 of CC(C)[C@@H]1OC(=O)[C@@H](NC(=O)c2cccc(NC=O)c2O)[C@H](C)OC(=O)[C@H](C(C)C)OC(=O)C(C)(C)[C@@H](O)[C@@H](Cc2ccccc2)OC1=O [compound 2, neoantimycin F] stay below 300 nM?
Result string: 0.0

The measurements presented in this section are drawn from paper PMC5645021.
